Target: T1, cynomolgus monkey CD3 E&D complex protein (Sino Biological Inc., CT032-00323H) (cynomolgus monkey, UniProt Q95LI5 22-117; Q95LI8 22-105)
T1 construct: bought heterodimer
T1 sequence (Q95LI5 22-117, chain 1 of 2): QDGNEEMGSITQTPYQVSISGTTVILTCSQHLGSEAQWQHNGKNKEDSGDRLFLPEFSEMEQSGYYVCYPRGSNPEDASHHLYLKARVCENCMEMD
T1 sequence (Q95LI8 22-105, chain 2 of 2): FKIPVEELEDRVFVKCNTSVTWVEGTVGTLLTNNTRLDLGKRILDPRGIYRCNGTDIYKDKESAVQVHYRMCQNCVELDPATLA
Experiment: BLI, antibody on sensor
pKd: −log10 of the molar value.
Returns one of T or F; T when pKd is >= 9.

{"columns": ["Binder", "Class label"],
 "data": [
  ["hzsp34.45 (antibody, human IgG1, kappa, L234A L235A, V domains shown, IgG1 L234A L235A, kappa) VH: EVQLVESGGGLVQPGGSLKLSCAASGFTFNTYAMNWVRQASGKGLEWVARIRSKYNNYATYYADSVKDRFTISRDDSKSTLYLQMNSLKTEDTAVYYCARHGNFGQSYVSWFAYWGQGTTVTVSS VL: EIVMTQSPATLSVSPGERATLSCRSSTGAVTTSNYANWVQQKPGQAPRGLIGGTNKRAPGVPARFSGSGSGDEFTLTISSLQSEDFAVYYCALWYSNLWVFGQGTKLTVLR", "F"],
  ["hzsp34.14 (antibody, human IgG1, lambda, L234A L235A, V domains shown, IgG1 L234A L235A, lambda) VH: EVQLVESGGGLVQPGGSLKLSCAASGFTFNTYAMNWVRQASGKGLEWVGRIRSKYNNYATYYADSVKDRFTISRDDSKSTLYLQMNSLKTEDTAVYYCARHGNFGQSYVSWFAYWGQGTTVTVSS VL: QAVVTQEPSLTVSPGGTVTLTCRSSTGAVTTSNYANWVQQKPGQAPRTLIGGTNKRAPGVPARFSGSLLGGKAALTLLGAQPEDEAEYYCALWYSNLWVFGQGTKLTVLG", "T"],
  ["hzsp34.37 (antibody, human IgG1, kappa, L234A L235A, V domains shown, IgG1 L234A L235A, kappa) VH: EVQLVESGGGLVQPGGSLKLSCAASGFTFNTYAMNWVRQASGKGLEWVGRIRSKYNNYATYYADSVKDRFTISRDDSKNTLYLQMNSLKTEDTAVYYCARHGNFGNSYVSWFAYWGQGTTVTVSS VL: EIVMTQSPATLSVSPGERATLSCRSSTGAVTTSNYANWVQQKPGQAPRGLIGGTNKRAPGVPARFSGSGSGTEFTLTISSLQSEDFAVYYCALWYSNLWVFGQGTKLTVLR", "F"],
  ["hzsp34.39 (antibody, human IgG1, kappa, L234A L235A, V domains shown, IgG1 L234A L235A, kappa) VH: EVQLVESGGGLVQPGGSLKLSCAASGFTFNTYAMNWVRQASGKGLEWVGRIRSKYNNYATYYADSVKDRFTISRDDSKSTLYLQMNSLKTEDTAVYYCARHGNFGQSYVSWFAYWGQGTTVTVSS VL: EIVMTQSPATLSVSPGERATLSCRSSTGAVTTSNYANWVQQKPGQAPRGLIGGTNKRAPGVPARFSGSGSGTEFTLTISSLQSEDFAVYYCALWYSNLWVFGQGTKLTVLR", "F"],
  ["hzsp34.17 (antibody, human IgG1, lambda, L234A L235A, V domains shown, IgG1 L234A L235A, lambda) VH: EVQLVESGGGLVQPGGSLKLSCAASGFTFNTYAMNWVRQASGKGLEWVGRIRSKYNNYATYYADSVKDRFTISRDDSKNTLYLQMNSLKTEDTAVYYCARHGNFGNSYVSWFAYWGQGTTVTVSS VL: QAVVTQEPSLTVSPGGTVTLTCRSSTGAVTTSNYANWVQQKPGQAPRGLIGGTNKRAPGVPARFSGSLLGGKAALTLLGAQPEDEAEYYCALWYSNLWVFGQGTKLTVLG", "T"],
  ["hzsp34.42 (antibody, human IgG1, kappa, L234A L235A, V domains shown, IgG1 L234A L235A, kappa) VH: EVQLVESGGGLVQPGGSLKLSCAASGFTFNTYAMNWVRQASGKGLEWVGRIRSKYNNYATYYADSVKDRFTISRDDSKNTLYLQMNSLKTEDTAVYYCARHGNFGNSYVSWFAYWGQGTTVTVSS VL: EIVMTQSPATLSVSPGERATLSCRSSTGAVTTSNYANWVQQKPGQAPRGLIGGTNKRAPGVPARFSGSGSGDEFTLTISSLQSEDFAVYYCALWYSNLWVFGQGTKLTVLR", "F"]
]}

From: patent US20230374132A1
